target: Hepatocyte nuclear factor 4-alpha (Homo sapiens); experiment: HNF4-alpha DNA association modulation – biochemical, fluorescence polarization, FITC-DNA, primary screen (AID 1224865); conditions: HNF4a-FITC DNA binding, 1 h, at 10 µM
Among all 360,000 compounds or so, about 1,100 (0.31%) were called active. No stated cut-off is given here; in the data, active means activity change above about 30% (passing the limit was not always enough); inactive means the rest. What follows is part of a selection rich in actives, with near analogues and random picks from the rest.
Bench note: report the call from active, inactive

The following molecules have reported results that may help.
O=C1N=c2ccccc2=C/C1=C\c1c(O)[nH]c(=S)[nH]c1=O    inactive
COc1ccc(-c2nn(CCC#N)cc2C(=O)Nc2ccc(C(C)=O)cc2)cc1    inactive

Please indicate how the test categorized `O=C(CCN1CCCCC1)NCC(=O)Nc1ccc(Br)cc1C(=O)c1ccccc1` .
active
